molecular target: Fuc(a1-2)[Gal(a1-3)]Gal(b1-4)GlcNAc(b1-2)Man(a1-3)[Fuc(a1-2)[Gal(a1-3)]Gal(b1-4)GlcNAc(b1-2)Man(a1-6)]Man(b1-4)GlcNAc(b1-4)[Fuc(a1-6)]GlcNAc; assay: glycan array binding signal (z-score within array); higher = stronger binding; conditions: glycan notation: IUPAC condensed, linker removed
Many of the other results were omitted from the sample, so the strongest signals are more common in it than they were.
For each entry below, report its glycan array binding signal (z-score) value.
Answers are plain numbers.

* BabA (Helicobacter pylori), O52269_HELPY (protein) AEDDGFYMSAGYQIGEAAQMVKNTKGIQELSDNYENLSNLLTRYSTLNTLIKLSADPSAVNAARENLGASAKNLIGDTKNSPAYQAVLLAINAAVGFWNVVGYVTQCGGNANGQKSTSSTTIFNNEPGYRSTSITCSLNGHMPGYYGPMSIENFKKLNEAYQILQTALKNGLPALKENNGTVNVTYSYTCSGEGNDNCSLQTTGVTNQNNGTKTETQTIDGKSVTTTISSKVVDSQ | -0.046
* CV-2L (Chromobacterium violaceum), Q7NX84 (protein) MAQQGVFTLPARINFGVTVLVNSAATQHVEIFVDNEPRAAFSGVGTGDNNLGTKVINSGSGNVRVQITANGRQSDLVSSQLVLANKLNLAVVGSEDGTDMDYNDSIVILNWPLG | -0.257
* Pwp1 (Candida glabrata) (protein) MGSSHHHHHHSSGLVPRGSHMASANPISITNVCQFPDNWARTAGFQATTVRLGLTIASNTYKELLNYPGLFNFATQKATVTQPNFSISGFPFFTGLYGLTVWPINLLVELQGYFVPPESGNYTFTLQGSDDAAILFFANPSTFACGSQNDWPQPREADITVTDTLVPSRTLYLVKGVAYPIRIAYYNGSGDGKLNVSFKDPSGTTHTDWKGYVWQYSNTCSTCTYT | 0.301

In the following, a different binder is considered.
Memo: Pwp5 ND (Candida glabrata) (protein) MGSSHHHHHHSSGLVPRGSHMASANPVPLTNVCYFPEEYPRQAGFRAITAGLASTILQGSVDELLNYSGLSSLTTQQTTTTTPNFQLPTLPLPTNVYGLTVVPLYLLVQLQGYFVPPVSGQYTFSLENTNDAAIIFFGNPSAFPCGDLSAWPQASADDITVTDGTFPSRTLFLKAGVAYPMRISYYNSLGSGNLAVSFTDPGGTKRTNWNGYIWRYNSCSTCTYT , reported glycan array binding signal (z-score): 0.284
